Catalogue of compounds with associated pIC50
- testedOn: Short transient receptor potential channel 5 (Homo sapiens)
- methodDescription: Inhibition of human TRPC5 channel expressed in HEK293 cells assessed as inhibition of EA-evoked channel current measured at +80 mV by whole-cell voltage clamp assay
- Type: cell-based
pIC50: −log10 of the molar value.

# inputSmiles, pIC50
measured = [
    ("O=C1NC(=O)C(N2CCc3c(ncnc3Oc3ccc(F)cc3C(F)(F)F)C2)=C1Cl", 7.85),
    ("O=C1CN(c2cn[nH]c(=O)c2Cl)CCN1Cc1ccccc1C(F)(F)F", 7.30),
]

---

Listed compounds paired with reported pIC50
- testedOn: Short transient receptor potential channel 5 (Homo sapiens, UniProt Q9UL62)
- Sequence (Q9UL62 whole entry): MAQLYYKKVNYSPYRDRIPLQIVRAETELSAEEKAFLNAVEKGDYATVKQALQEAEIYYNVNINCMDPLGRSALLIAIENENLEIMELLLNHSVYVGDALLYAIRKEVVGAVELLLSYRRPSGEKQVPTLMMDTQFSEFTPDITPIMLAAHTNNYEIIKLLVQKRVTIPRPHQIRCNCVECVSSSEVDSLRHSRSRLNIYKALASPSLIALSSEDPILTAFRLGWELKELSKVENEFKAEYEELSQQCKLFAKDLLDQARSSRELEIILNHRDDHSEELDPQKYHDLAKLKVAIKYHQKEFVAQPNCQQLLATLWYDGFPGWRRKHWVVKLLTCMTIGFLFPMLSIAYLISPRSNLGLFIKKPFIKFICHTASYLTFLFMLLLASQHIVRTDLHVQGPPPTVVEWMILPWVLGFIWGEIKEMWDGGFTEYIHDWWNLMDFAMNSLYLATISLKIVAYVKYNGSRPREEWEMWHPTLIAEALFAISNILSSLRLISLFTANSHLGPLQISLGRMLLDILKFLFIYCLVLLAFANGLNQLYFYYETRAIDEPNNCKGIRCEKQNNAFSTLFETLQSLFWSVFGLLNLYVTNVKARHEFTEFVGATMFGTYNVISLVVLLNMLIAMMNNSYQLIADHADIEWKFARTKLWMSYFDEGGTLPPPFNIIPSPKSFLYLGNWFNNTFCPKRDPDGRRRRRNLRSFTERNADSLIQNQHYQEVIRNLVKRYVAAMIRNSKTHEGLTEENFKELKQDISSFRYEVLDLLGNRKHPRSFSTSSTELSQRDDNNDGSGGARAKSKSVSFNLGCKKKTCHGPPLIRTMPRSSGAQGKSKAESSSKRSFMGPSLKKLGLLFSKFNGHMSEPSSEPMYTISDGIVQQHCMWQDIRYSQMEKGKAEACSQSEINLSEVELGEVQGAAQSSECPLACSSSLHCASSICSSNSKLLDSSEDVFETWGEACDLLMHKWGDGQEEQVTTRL
- methodDescription: Inhibition of TRPC5 channel (unknown origin) expressed in HEK293 cells assessed as inhibition of EA-evoked Ca2+ entry by measuring reduction in intracellular Ca2+ level by Fluo-4 dye based FLIPR assay
- Assay type: cell-based
pIC50: −log10 of the molar value.
assayEndpoint: pIC50

# inputSmiles, testedOn, assayEndpoint, modifier, numericReadout
rows = [
    ("O=C1CN(c2cc(=O)[nH]cn2)CCN1Cc1ccccc1C(F)(F)F", "Short transient receptor potential channel 5 (Homo sapiens, UniProt Q9UL62)", "pIC50", "<", 5.00),
    ("O=C1NC(=O)C(N2CCc3c(ncnc3Oc3ccccc3Cl)C2)=C1Cl", "Short transient receptor potential channel 5 (Homo sapiens, UniProt Q9UL62)", "pIC50", "=", 6.18),
    ("O=C1CN(c2cc(=O)[nH]c(=O)[nH]2)CCN1Cc1ccccc1C(F)(F)F", "Short transient receptor potential channel 5 (Homo sapiens, UniProt Q9UL62)", "pIC50", "<", 5.00),
    ("O=C(NCc1ccccc1C(F)(F)F)C1CN(c2cn[nH]c(=O)c2Cl)C1", "Short transient receptor potential channel 5 (Homo sapiens, UniProt Q9UL62)", "pIC50", "<", 5.00),
    ("O=C(CC1CN(c2cn[nH]c(=O)c2Cl)C1)NCc1ccccc1C(F)(F)F", "Short transient receptor potential channel 5 (Homo sapiens, UniProt Q9UL62)", "pIC50", "<", 5.00),
    ("O=C1NC(=O)C(N2CCc3c(nc(C4CC4)nc3Oc3ccc(F)cc3C(F)(F)F)C2)=C1Cl", "Short transient receptor potential channel 5 (Homo sapiens, UniProt Q9UL62)", "pIC50", "=", 5.68),
    ("O=C1NC(=O)C(N2CCN(Cc3ccccc3C(F)(F)F)C(=O)C2)=C1Cl", "Short transient receptor potential channel 5 (Homo sapiens, UniProt Q9UL62)", "pIC50", "=", 4.98),
    ("O=C1NC(=O)C(N2CCc3c(ncnc3Oc3ccccc3C(F)(F)F)C2)=C1Cl", "Short transient receptor potential channel 5 (Homo sapiens, UniProt Q9UL62)", "pIC50", "=", 6.34),
    ("Cc1nc2c(c(Oc3ccc(F)cc3C(F)(F)F)n1)CCN(C1=C(Cl)C(=O)NC1=O)C2", "Short transient receptor potential channel 5 (Homo sapiens, UniProt Q9UL62)", "pIC50", "=", 6.90),
    ("CCc1nc2c(c(Oc3ccc(F)cc3C(F)(F)F)n1)CCN(C1=C(Cl)C(=O)NC1=O)C2", "Short transient receptor potential channel 5 (Homo sapiens, UniProt Q9UL62)", "pIC50", "=", 6.10),
    ("O=C1NC(=O)C(N2CCc3c(ncnc3Oc3ccc(F)cc3C3CCC3)C2)=C1Cl", "Short transient receptor potential channel 5 (Homo sapiens, UniProt Q9UL62)", "pIC50", "<", 5.00),
    ("Cn1c(N2CCN(Cc3ccccc3C(F)(F)F)C(=O)C2)cc(=O)[nH]c1=O", "Short transient receptor potential channel 5 (Homo sapiens, UniProt Q9UL62)", "pIC50", "<", 5.00),
    ("N#Cc1cc(F)ccc1Oc1ncnc2c1CCN(C1=C(Cl)C(=O)NC1=O)C2", "Short transient receptor potential channel 5 (Homo sapiens, UniProt Q9UL62)", "pIC50", "=", 6.18),
    ("O=C1NC(=O)C(N2CCc3c(ncnc3Oc3ccc(F)cc3CC(F)(F)F)C2)=C1Cl", "Short transient receptor potential channel 5 (Homo sapiens, UniProt Q9UL62)", "pIC50", "=", 5.59),
    ("Cn1ncc(N2CCN(Cc3ccccc3C(F)(F)F)C(=O)C2)c(Cl)c1=O", "Short transient receptor potential channel 5 (Homo sapiens, UniProt Q9UL62)", "pIC50", "<", 5.00),
    ("O=C1NC(=O)C(N2CCc3c(cnn3Cc3ccccc3C(F)(F)F)C2)=C1Cl", "Short transient receptor potential channel 5 (Homo sapiens, UniProt Q9UL62)", "pIC50", "=", 6.02),
    ("O=C1NC(=O)C(N2CCc3c(ncnc3Oc3ccc(C(F)(F)F)cc3)C2)=C1Cl", "Short transient receptor potential channel 5 (Homo sapiens, UniProt Q9UL62)", "pIC50", "<", 5.00),
    ("CN(Cc1ccccc1C(F)(F)F)C(=O)C1CN(c2cn[nH]c(=O)c2Cl)C1", "Short transient receptor potential channel 5 (Homo sapiens, UniProt Q9UL62)", "pIC50", "<", 5.00),
    ("O=C1NC(=O)C(N2CCc3c(ncnc3Oc3ccc(F)cc3C3CC3)C2)=C1Cl", "Short transient receptor potential channel 5 (Homo sapiens, UniProt Q9UL62)", "pIC50", "=", 6.95),
    ("O=C1CN(c2cn[nH]c(=O)c2)CCN1Cc1ccccc1C(F)(F)F", "Short transient receptor potential channel 5 (Homo sapiens, UniProt Q9UL62)", "pIC50", "<", 5.00),
    ("O=C1NC(=O)C(N2CCc3c(ncnc3Oc3ccc(F)cc3C(F)(F)F)C2)=C1Cl", "Short transient receptor potential channel 5 (Homo sapiens, UniProt Q9UL62)", "pIC50", "=", 7.22),
    ("CCc1ccccc1Oc1ncnc2c1CCN(C1=C(Cl)C(=O)NC1=O)C2", "Short transient receptor potential channel 5 (Homo sapiens, UniProt Q9UL62)", "pIC50", "=", 5.97),
    ("O=C1NC(=O)C(N2CCc3c(ncnc3Oc3c(F)cccc3C(F)(F)F)C2)=C1Cl", "Short transient receptor potential channel 5 (Homo sapiens, UniProt Q9UL62)", "pIC50", "=", 6.11),
    ("O=C1NC(=O)C(N2CCc3c(ncnc3Oc3ccc(Cl)cc3C(F)(F)F)C2)=C1Cl", "Short transient receptor potential channel 5 (Homo sapiens, UniProt Q9UL62)", "pIC50", "=", 6.50),
]
